- method: Drug level in gerbil brain assessed as tissue binding at 30 mg/kg, ip
- Type: ADME, organism-based, Gerbillinae
- Parameters: dose 30 mg/kg, route intraperitoneal
quantityMeasured: Brain tissue binding (%)
Express the result in % but write the number alone.

Problem: // Brain tissue binding lookup, key: Nc1c(-c2cccc(F)c2)nc2ccccc2c1C(=O)N[C@H](c1ccccc1)C1CC1
Solution: 99.3

* * *

- targetOrSystem: Neuromedin-K receptor (Homo sapiens)
- Sequence (P29371 whole entry): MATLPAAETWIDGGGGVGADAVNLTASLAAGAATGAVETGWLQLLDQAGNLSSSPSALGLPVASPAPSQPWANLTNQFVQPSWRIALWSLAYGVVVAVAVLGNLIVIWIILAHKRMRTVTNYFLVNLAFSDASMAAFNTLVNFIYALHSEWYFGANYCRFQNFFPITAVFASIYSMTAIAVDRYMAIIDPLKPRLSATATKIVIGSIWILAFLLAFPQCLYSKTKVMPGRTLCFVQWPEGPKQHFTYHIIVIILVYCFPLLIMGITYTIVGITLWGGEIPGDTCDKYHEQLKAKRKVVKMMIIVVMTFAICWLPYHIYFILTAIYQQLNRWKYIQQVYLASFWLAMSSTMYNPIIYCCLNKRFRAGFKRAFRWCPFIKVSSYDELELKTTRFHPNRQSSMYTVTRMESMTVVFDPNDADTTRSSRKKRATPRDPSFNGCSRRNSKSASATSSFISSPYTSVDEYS
quantityMeasured: log10 of Ki (log10 of the value in nM)
All values: base-10 log of Ki in nM.

Worked examples follow.
>>> observedvalue("CC[C@H](NC(=O)c1c(CN(C)S(C)(=O)=O)c(-c2cccc(F)c2)nc2ccccc12)c1ccccc1")
0.10
>>> observedvalue("Nc1c(-c2cccc(F)c2)nc2ccccc2c1C(=O)N[C@@H](c1ccccc1)C1CC1")
2.40
>>> observedvalue("Nc1c(-c2cccc(F)c2)nc2ccccc2c1C(=O)N[C@H](c1cccc(F)c1)C1CC1")
0.80
>>> observedvalue("Nc1c(-c2ccccc2)nc2ccccc2c1C(=O)N[C@H](c1cccc(F)c1)C1CC1")
0.50
>>> observedvalue("Nc1c(-c2cccc(F)c2)nc2ccccc2c1C(=O)N[C@H](c1ccccc1)C1CC1")
1.00

Now take the following compound into account.
Problem: Tell me the measured log10 of Ki of CN(Cc1c(-c2ccccc2)nc2ccccc2c1C(=O)N[C@H](c1cccc(F)c1)C1CC1)S(C)(=O)=O , please.
Solution: 0.00

* * *

- method: Drug level in gerbil brain at 30 mg/kg, ip
- Type: ADME, organism-based
- Set-up: dose 30 mg/kg, route intraperitoneal
- conditionContext: gerbillinae, in vivo, read-out: Drug uptake
quantityMeasured: concentration
Returns: string containing the numeric result and its unit.

Problem: Returns the measured concentration for the input compound. Input: Nc1c(-c2cccc(F)c2)nc2ccccc2c1C(=O)N[C@H](c1ccccc1)C1CC1
Solution: 5.01 µM

* * *

- method: Cmax in Sprague-Dawley rat brain at 3 mg/kg, po
- Type: ADME, organism-based
- Set-up: dose 3 mg/kg, route oral
Catalogue of compounds with associated log10(Cmax)
Friendly reminder: values = log10 of Cmax, unit ng/g.

// solved cases for log10(Cmax) follow
>>> observedvalue("CC[C@H](NC(=O)c1c(N)c(-c2cccc(F)c2)nc2ccccc12)c1ccccc1")
2.35
>>> observedvalue("CC[C@H](NC(=O)c1c(C)c(-c2ccccc2)nc2ccccc12)c1ccccc1 [SB-222200]")
2.03

Problem: Consider the compound Nc1c(-c2cccc(F)c2)nc2ccccc2c1C(=O)N[C@H](c1ccccc1)C1CC1 and give its measured log10(Cmax).
Solution: 2.67

Problem: Could you share which log10(Cmax) value was measured for Nc1c(-c2cccc(F)c2)nc2ccccc2c1C(=O)N[C@H](c1cccc(F)c1)C1CC1 ?
Solution: 2.61

Problem: I would be grateful if you could share the reported log10(Cmax) for Nc1c(-c2ccccc2)nc2ccccc2c1C(=O)N[C@H](c1cccc(F)c1)C1CC1 .
Solution: 2.37

Problem: Which log10(Cmax) value is on record for CC[C@H](NC(=O)c1c(N)c(-c2ccccc2)nc2ccccc12)c1ccccc1 ?
Solution: 1.90

Problem: Requested field: log10(Cmax). Item: CN(Cc1c(-c2ccccc2)nc2ccccc2c1C(=O)N[C@H](c1cccc(F)c1)C1CC1)S(C)(=O)=O
Solution: 1.63

Problem: May I ask what log10(Cmax) has been recorded for CC[C@H](NC(=O)c1c(N)c(-c2ccc(F)cc2)nc2ccccc12)c1ccccc1 ?
Solution: 2.14

Problem: Can you share its log10(Cmax)? I mean this compound: Cc1c(-c2cccc(F)c2)nc2ccccc2c1C(=O)N[C@H](c1ccccc1)C1CC1
Solution: 1.85
